Assay: Single ascending-dose (SAD) study, plasma pharmacokinetics
Format: in vivo, human
Settings: both sexes, human, plasma, oral, 80 mg, SAD single dose 80 mg, N = 8, mean (SD); read-out: AUC0-t
Outcome Measure: AUC(0-t)
Reply with the number, then its unit.

IN: Item Cc1nc(-c2cnc(N3CCN(CCCc4c[nH]c5ccc(C#N)cc45)CC3)nc2)sc1C(N)=O [HEC113995PA·H2O] has what recorded AUC(0-t)?
OUT: 5650 ng·h/mL

====

Assay: Food effect study, plasma pharmacokinetics
Type: in vivo, human
Settings: both sexes, human, plasma, po, 20 mg, single oral 20 mg, fasted, N = 18, mean (SD)
Outcome Measure: half-life (min)
# unit: min | format: bare number

IN: Using the record for Cc1nc(-c2cnc(N3CCN(CCCc4c[nH]c5ccc(C#N)cc45)CC3)nc2)sc1C(N)=O [HEC113995PA·H2O] , report its half-life.
OUT: 1740

====

Experiment: Single ascending-dose (SAD) study, plasma pharmacokinetics
Format: in vivo, human
Details: both sexes, human, plasma, oral; SAD single dose 10 mg, N = 8, mean (SD); read-out: AUC0-∞
Procedure: The study comprised a total of 7 dose groups (2.5, 5, 10, 20, 40, 60, and 80 mg groups, respectively). The first dose group (2.5 mg) consisted of 8 subjects, with 6 receiving HEC113995PA·H2O and 2 receiving placebo. […] Drug safety and tolerability were evaluated on day 2 and 4 in the first dose group and on day 4 and 7 in the second to seventh dose groups. […] The concentration of HEC113995PA·H2O in human plasma samples (K2EDTA) was quantitatively analyzed using the LC-MS/MS method. […]
Outcome Measure: AUC(0-inf) (ng·h/mL)
Number only, in ng·h/mL; omit the unit.

IN: AUC(0-inf) lookup needed for Cc1nc(-c2cnc(N3CCN(CCCc4c[nH]c5ccc(C#N)cc45)CC3)nc2)sc1C(N)=O [HEC113995PA·H2O] , thanks.
OUT: 832

====

Experiment: Single ascending-dose (SAD) study, plasma pharmacokinetics
Assay type: in vivo, human
Conditions: both sexes, human, plasma, oral; across single-dose groups 2.5–80 mg; read-out: AUC0-t, geometric mean range
Procedure: The study comprised a total of 7 dose groups (2.5, 5, 10, 20, 40, 60, and 80 mg groups, respectively). The first dose group (2.5 mg) consisted of 8 subjects, with 6 receiving HEC113995PA·H2O and 2 receiving placebo. […] Drug safety and tolerability were evaluated on day 2 and 4 in the first dose group and on day 4 and 7 in the second to seventh dose groups. […] The concentration of HEC113995PA·H2O in human plasma samples (K2EDTA) was quantitatively analyzed using the LC-MS/MS method. […]
Outcome Measure: AUC(0-t)

IN: Give its AUC(0-t) value. Item: Cc1nc(-c2cnc(N3CCN(CCCc4c[nH]c5ccc(C#N)cc45)CC3)nc2)sc1C(N)=O [HEC113995PA·H2O]
OUT: 172 to 5580 ng·h/mL

====

Experiment: Single ascending-dose (SAD) study, plasma pharmacokinetics
Type: in vivo, human
Details: both sexes, human, oral; SAD single dose 40 mg, N = 8, plasma, mean (SD); read-out: Cmax
Outcome Measure: Cmax (ng/mL)
Please reply with the bare figure in ng/mL and do not write the unit itself.

IN: Bench note: what Cmax did Cc1nc(-c2cnc(N3CCN(CCCc4c[nH]c5ccc(C#N)cc45)CC3)nc2)sc1C(N)=O [HEC113995PA·H2O] show?
OUT: 88.5
